Task for the reader: assign each of the following molecules its reported Ki.
Write the number in µM without appending the unit.

Query CC(C)(C)c1nc2cc(C(=O)N3CCC(C(=O)NC4CC4)CC3)ccc2n1CC1CCCCC1 on Human CB1 receptor (hCB1) (Homo sapiens); Ki returned: 0.0238

Query CC(C)(C)c1nc2cc(C(=O)N3CCC(C(=O)NC4CC4)CC3)ccc2n1CC1CCC(F)(F)CC1 on Human CB1 receptor (hCB1) (Homo sapiens); Ki returned: 0.0192

Origin of measurements: patent US20100305140A1
